molecular target: ScMyo5; test: SPOT peptide array binding signal intensity (averaged, normalized) (arbitrary units (background-subtracted, floor 0; scale differs between SH3 domains)); higher = stronger binding of the SH3 domain to the peptide
Rule: SPOT peptide array binding signal intensity of 60 or more gives fulfilled; anything lower gives not fulfilled.

[[record]]
binder = "PKMLPIPSKPTLFDL"
group = "not fulfilled"

[[record]]
binder = "FVLRYYILIPHEQWD"
group = "not fulfilled"

[[record]]
binder = "SRQAIPPPVPNRPGG"
group = "fulfilled"

[[record]]
binder = "ALFRLSFFFPLDPAY"
group = "fulfilled"

[[record]]
binder = "MFLISPPASPPPEFD"
group = "fulfilled"


Is reported SPOT peptide array binding signal intensity greater than or equal to 60 here: KKAPPPVVKPKPRNF
not fulfilled

Is reported SPOT peptide array binding signal intensity greater than or equal to 60 here: STPQTMRQAPKRPDA
fulfilled
